- System: Amaranthus retoflexus (AMARE)
- Experimental protocol: B1 Post-emergence efficacy, glasshouse pot test
- Type: in vivo
- Applied conditions: post-emergence application, 1000 g/ha, evaluated after 13 days
Experimental endpoint: AMARE: percentage damage caused to the plant (five point scale)

Solved cases below.
CSc1nn(C)c(=O)c(-c2c(Cl)ccc(Cl)c2OCc2ccccc2)c1O [Compound 1.086] | 3 (3=40-59%)
Cc1nn(C)c(=O)c(-c2c(F)ccc(Cl)c2OCc2ccccc2)c1O [Compound 1.004] | 5 (5=80-100%)
Cc1nn(C2CC2)c(=O)c(-c2c(Cl)ccc(Cl)c2OCc2ccccc2)c1O [Compound 1.041] | 5 (5=80-100%)
Cc1nn(C2CC2)c(=O)c(-c2c(F)ccc(Cl)c2OCc2ccccc2)c1O [Compound 1.044] | 5 (5=80-100%)
Cc1nn(C)c(=O)c(-c2c(C(F)(F)F)ccc(Cl)c2OCc2ccccc2)c1O [Compound 1.073] | 3 (3=40-59%)
Cc1ccc(Cl)c(OCc2ccccc2)c1-c1c(O)c(C)nn(C)c1=O [Compound 1.076] | 2 (2=20-39%)
C#CCn1nc(C)c(O)c(-c2c(F)ccc(Cl)c2OCc2ccccc2)c1=O [Compound 1.077] | 5 (5=80-100%)
CN(C)c1nn(C)c(=O)c(-c2c(Cl)ccc(Cl)c2OCc2ccccc2)c1O [Compound 1.087] | 5 (5=80-100%)
Cc1nn(C)c(=O)c(-c2ccccc2OCc2ccccc2)c1O [Compound 1.002] | 4 (4=60-79%)
Cc1nn(C)c(=O)c(-c2c(C(F)(F)F)ccc(F)c2OCc2ccccc2)c1O [Compound 1.069] | 3 (3=40-59%)

For the next question, use this compound.
Query string: Please look at this compound and report its AMARE: percentage damage caused to the plant (five point scale): Cc1nn(C)c(=O)c(-c2cccc(Cl)c2OCc2ccccc2)c1O [Compound 1.003]
Result string: 4 (4=60-79%)

The measured values listed here are drawn from patent US9944608B2.
